Entry source: patent US20170022281A1

TEST SYSTEM: T1, human PRLR (Biacore antigen) (human, UniProt P16471 25-234, limits assumed)
T1 construct: The construct injected over captured antibody is not described (a soluble form is likely); also called huPRLR
T1 sequence: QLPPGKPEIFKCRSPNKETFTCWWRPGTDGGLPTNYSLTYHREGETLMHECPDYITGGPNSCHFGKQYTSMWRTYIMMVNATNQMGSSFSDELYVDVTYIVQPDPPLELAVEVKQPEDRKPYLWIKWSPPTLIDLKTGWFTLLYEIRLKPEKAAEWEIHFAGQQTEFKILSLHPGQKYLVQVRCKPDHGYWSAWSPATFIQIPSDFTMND
EXPERIMENT: SPR Biacore
REPORTED PROPERTY: Kd (nM)
Numbers only; they are read as nM.

Recorded results for 2 binders are shown here.
Ab21 (antibody, human IgG1, kappa, V domains shown, humanized from Ab6; G1; also called Ab1 HC.1a and Ab1 LC.2a) VH: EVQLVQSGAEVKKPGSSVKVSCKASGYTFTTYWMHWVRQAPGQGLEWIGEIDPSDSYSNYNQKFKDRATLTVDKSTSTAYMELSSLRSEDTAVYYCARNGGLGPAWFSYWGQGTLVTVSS VL: EIVMTQSPATLSVSPGERATLSCKASQYVGTAVAWYQQKPGQSPRLLIYSASNRYTGVPARFSDSGSGTEFTLTISSLQSEDFAVYFCQQYSSYPWTFGGGTKVEIKR: 0.554
Ab7 (antibody, V domains shown, murine monoclonal, isotype G1; also called murine Ab7) VH: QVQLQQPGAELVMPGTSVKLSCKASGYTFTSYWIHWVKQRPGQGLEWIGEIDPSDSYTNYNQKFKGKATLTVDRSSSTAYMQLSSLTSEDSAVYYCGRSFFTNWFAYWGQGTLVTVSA VL: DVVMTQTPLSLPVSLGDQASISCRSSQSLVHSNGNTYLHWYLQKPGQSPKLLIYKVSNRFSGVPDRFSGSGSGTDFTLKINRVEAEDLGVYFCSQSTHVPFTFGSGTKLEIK: 0.153

Continue with the binder presented below.
(Q) Name the recorded Kd of the item Ab13 (antibody, V domains shown, murine monoclonal, isotype G2a; also called murine Ab13) VH: QVQLQQPGAELVRPGTSVKLSCKASGYTFTSFWMHWVKQRPGQGLEWIGVIDPSDSHTNYNQKFKGKATLTVNTSSSTAYMHLSSLTSEDSAVYYCARGDYSNWFTYWGQGTLVTVSA VL: DVVMTQTPFSLPVSLGDQASISCRSSQSLVHSNGNTYLHWYLQKPGQSPKLLIYKVSNRFSGVPDRFSGSGSGTDFTLKISRVEAEDLELYFCSQSTHVPWTFGGGTKLEIK in your answer.
(A) 0.997
